Test system: RXF 393
assay summary: NCI tumour cell line growth inhibition, 48 h
Activity calls are given as the source filed them. Cut-off read from the data, not from the text of the source: active = GI50 up to about 1.1 µM and inactive = higher.
experimental readout: GI50

                                    compound  experimental_readout            obs_value
 0  Oc1nc2c(c(-c3cccc(Cl)c3)n1)COC/C2=C\c1cccc(Cl)c1                  GI50  > 100 µM (inactive)
 1  COC(=O)c1nc(N)nc(C(=O)OC)c1C(=O)c1ccccc1                  GI50  > 100 µM (inactive)
 2     O=C1CCCc2cc3c(cc21)CC1(Cc2ccccc2C1)C3                  GI50   8.83 µM (inactive)
 3     O=C(Cc1nc2ccccc2o1)C(=O)Nc1cccc(Cl)c1                  GI50  > 100 µM (inactive)
 4  CCCNC(=O)c1cc(OC)c(OC)cc1NC(=O)C12CC3CC(CC(C3)C1)C2                  GI50   6.81 µM (inactive)
 5  CCc1cc2c(c3c1CCCC3)CC1(Cc3ccc(C(=O)OC)cc3C1)C2 (stereo not drawn)                  GI50  > 100 µM (inactive)
 6  COC1CCC(=O)N1CN(C(C)=O)c1ccc(C)cc1 (stereo not drawn)                  GI50  > 100 µM (inactive)
 7  COC(=O)CCC(=O)NC1C2CC3CC(C2)CC1C3 (stereo not drawn)                  GI50  > 100 µM (inactive)
 8  CC(=O)Oc1ccc(N2C(=O)C3c4[nH]c5ccccc5c4C4CCC(C(C)(C)C)CC4C3C2=O)cc1 (stereo not drawn)                  GI50   2.46 µM (inactive)
 9  C[C@H]1CC[P+](C)(c2ccccc2)C1 (stereo partly drawn)                  GI50  > 100 µM (inactive)
10  COc1ccc(N2C(=O)/C(=C\c3ccccc3)SC2c2cc(OC)c(OC)c(OC)c2)cc1 (stereo not drawn)                  GI50   31.3 µM (inactive)
11  CCOC(=O)C(c1ccsc1)P(=O)(OCC)OCC (stereo not drawn)                  GI50   13.1 µM (inactive)
12  CS(=O)(=O)N1CC(CCl)c2ccc(O)cc21 (stereo not drawn)                  GI50    1.4 µM (inactive)
13  CCOC(=O)c1cc2c([nH]1)c(O)cc1c2ccn1Cc1ccccc1                  GI50    7.8 µM (inactive)
14  C=CCCCC1SC2=C(CC)CCCN2C1=O (stereo not drawn)                  GI50   40.5 µM (inactive)
15  CCOC(=O)Cn1c2ccccc2c(=O)c2cc(C)c(C)c(C#N)c21                  GI50   63.7 µM (inactive)
16  O=C(CSc1nc2ccc(I)cc2c(=O)n1Cc1ccccc1)NNC(=S)Nc1ccccc1                  GI50  > 100 µM (inactive)
17                 NC12CC3CC(C1)CC(Cl)(C3)C2                  GI50  > 100 µM (inactive)
